Test system: GCV-resistant/PFA-sensitive HCMV strain
PROCEDURE SUMMARY: microbe, parasite or virus in culture
Assay type: cell-based, human cytomegalovirus (HCMV)
MEASUREMENT SETUP: Human betaherpesvirus 5, read-out: ID50 (95% CI)
QUANTITY MEASURED: IC50 (µM)
Only the number, expressed in µM, is required.

(Q) For the compound O=C(O)P(=O)(O)O.[Na] [PFA, sodium-phosphonoformic acid, reference compound] , give its reported IC50.
(A) 64.8
